Record form. Attribute: pIC50. Fill in for each entry.
molecular target: PI3K β (Homo sapiens); construct: Full length p110 subunits of PI3K α, β and δ, N-terminally labeled with polyHis tag; polyHis (N); assay: In vitro PI3 kinase enzyme assay (beta), ATP loss, bioluminescence; conditions: read-out: PI3Kβ ATP loss IC50
Sequence (P42338 whole entry, one chain of several): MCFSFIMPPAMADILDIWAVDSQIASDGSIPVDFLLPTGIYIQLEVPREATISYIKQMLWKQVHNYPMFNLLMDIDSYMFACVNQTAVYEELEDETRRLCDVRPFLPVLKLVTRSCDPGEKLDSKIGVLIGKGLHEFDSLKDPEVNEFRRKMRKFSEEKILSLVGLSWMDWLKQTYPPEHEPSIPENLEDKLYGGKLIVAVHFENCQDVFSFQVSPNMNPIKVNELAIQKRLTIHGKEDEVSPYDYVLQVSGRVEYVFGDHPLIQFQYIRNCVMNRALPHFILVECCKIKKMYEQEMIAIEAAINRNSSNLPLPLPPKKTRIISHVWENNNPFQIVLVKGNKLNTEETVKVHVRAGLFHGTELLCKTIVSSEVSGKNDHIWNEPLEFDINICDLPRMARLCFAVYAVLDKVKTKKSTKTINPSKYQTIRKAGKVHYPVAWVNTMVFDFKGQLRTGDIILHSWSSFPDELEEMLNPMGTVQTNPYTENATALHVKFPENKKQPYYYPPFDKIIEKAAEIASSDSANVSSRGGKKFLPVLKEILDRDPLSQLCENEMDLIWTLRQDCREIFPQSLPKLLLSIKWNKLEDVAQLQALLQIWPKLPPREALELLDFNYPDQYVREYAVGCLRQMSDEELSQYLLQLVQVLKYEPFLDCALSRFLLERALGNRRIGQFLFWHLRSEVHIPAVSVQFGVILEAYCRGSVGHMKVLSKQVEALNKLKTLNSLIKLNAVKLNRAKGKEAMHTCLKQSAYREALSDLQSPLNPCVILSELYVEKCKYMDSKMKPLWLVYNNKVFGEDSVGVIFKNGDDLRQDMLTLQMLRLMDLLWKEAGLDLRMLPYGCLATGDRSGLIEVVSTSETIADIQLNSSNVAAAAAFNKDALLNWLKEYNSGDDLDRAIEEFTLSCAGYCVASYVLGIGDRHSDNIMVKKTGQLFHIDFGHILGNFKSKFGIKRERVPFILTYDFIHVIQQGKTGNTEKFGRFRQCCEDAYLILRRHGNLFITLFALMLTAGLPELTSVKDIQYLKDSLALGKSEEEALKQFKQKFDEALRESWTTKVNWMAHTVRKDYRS
Schema: pIC50 number; meaning minus log10 of the concentration expressed in molar units.

## Input Give recorded pIC50 with PI3K β (Homo sapiens) for the following molecule: CC(=O)Nc1nc2ccc(-c3ccnc(OCC(C)(C)C)n3)cc2s1 [Example 42]
## Output 4.37

## Input Give recorded pIC50 with PI3K β (Homo sapiens) for the following molecule: CC(=O)NC(C)(C)c1ccc(S(=O)(=O)Nc2cc(-c3ccc4nc(N)sc4c3)cnc2Cl)cc1 [Example 323]
## Output 7.48

## Input Give recorded pIC50 with PI3K β (Homo sapiens) for the following molecule: COc1ccc(S(=O)(=O)N(C)c2nccc(-c3ccc4nc(NC(C)=O)sc4c3)n2)cc1 [Example 88]
## Output 7.10

## Input Give recorded pIC50 with PI3K β (Homo sapiens) for the following molecule: COc1ccc(S(=O)(=O)Nc2cncc(-c3ccc4nc(NC(C)=O)sc4c3)c2)cc1 [Example 195]
## Output 7.66

## Input Give recorded pIC50 with PI3K β (Homo sapiens) for the following molecule: CC(=O)Nc1nc2ccc(-c3ccnc(NS(=O)(=O)c4cccnc4)n3)cc2s1 [Example 79]
## Output 6.07

## Input Give recorded pIC50 with PI3K β (Homo sapiens) for the following molecule: CC(=O)Nc1nc2ccc(-c3cncc(OCCN4CCCC4=O)c3)cc2s1 [Example 229]
## Output 4.82

----------
target: PI3K β (Homo sapiens); construct: Full length p110 subunits of PI3K α, β and δ, N-terminally labeled with polyHis tag; polyHis (N); assay: In vitro PI3 kinase enzyme assay (beta), ATP loss, bioluminescence; conditions: read-out: PI3Kβ ATP loss IC50
measured.quantity: pIC50
Schema: pIC50 number; meaning minus log10 of the concentration expressed in molar units.

## Input Requested read-out: pIC50. Entry: CNc1nc2ccc(-c3cnc(Cl)c(NS(=O)(=O)c4ccccc4F)c3)cc2s1 [Example 320]
## Output 7.21

## Input Requested read-out: pIC50. Entry: CC(=O)Nc1ccc(S(=O)(=O)Nc2nccc(-c3ccc4nc(NC(C)=O)sc4c3)n2)cc1 [Example 86]
## Output 4.99

## Input Requested read-out: pIC50. Entry: CC(=O)Nc1nc2ccc(-c3cncc(Cl)n3)cc2s1 [Example 150]
## Output 6.04

## Input Requested read-out: pIC50. Entry: CC(=O)Nc1nc2ccc(-c3nnc(NS(=O)(=O)c4ccc(F)cc4)o3)cc2s1 [Example 164]
## Output 6.49

## Input Requested read-out: pIC50. Entry: CC(=O)Nc1nc2ccc(-c3cccc(NS(=O)(=O)c4ccc(C)cc4)c3)nc2s1 [Example 136]
## Output 6.70

## Input Requested read-out: pIC50. Entry: CC(=O)Nc1nc2ccc(-c3cnc(C)c(NS(=O)(=O)c4ccccc4F)c3)cc2s1 [Example 112]
## Output 8.04

## Input Requested read-out: pIC50. Entry: CNc1nc2ccc(-c3cnc(Cl)c(NS(=O)(=O)c4ccc(C(C)(C)NC(C)=O)cc4)c3)cc2s1 [Example 322]
## Output 7.60

## Input Requested read-out: pIC50. Entry: CC(=O)Nc1nc2ccc(-c3cncc(N(C)S(=O)(=O)c4ccc(C(F)(F)F)cc4)c3)cc2s1 [Example 218]
## Output 5.08

----------
Record form. Attribute: IC50. Fill in for each entry.
target: PI3K α (Homo sapiens, UniProt P42336); construct: Full length p110 subunits of PI3K α, β and δ, N-terminally labeled with polyHis tag; polyHis (N); made in house; host or cells: Sf9 insect cells (baculovirus); assay: In vitro PI3 kinase enzyme assay (alpha), ATP loss, bioluminescence; assay type: biochemical; details: read-out: PI3Kα ATP loss IC50
Sequence (P42336 whole entry, species assumed): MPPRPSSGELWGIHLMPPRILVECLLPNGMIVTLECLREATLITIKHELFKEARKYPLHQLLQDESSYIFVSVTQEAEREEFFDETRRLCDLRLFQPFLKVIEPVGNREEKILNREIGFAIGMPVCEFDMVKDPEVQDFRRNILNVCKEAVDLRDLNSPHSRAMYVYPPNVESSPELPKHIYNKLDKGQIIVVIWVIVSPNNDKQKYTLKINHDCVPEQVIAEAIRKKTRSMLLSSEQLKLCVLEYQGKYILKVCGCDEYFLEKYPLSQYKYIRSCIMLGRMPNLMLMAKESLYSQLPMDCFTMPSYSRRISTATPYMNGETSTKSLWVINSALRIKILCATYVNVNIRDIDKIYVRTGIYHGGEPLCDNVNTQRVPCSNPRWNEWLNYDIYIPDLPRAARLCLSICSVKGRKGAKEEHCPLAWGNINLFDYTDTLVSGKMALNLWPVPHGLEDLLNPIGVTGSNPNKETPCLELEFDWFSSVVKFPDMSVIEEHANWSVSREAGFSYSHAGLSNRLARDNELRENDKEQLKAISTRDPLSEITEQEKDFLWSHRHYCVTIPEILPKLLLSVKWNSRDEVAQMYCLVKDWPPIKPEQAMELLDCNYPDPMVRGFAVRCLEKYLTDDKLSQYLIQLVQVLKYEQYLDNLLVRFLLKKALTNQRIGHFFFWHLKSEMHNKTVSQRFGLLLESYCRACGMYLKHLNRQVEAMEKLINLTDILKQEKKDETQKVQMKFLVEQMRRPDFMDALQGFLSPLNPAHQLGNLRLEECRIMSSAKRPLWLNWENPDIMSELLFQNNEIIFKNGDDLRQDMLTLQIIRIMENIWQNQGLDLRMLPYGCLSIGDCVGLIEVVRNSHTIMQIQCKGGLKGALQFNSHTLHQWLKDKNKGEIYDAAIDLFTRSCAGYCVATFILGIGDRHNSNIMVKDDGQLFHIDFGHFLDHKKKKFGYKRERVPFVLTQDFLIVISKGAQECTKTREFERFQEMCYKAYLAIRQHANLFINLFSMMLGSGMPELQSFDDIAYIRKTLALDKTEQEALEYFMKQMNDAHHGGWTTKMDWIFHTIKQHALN
Sequence (P27986 whole entry partner, species assumed): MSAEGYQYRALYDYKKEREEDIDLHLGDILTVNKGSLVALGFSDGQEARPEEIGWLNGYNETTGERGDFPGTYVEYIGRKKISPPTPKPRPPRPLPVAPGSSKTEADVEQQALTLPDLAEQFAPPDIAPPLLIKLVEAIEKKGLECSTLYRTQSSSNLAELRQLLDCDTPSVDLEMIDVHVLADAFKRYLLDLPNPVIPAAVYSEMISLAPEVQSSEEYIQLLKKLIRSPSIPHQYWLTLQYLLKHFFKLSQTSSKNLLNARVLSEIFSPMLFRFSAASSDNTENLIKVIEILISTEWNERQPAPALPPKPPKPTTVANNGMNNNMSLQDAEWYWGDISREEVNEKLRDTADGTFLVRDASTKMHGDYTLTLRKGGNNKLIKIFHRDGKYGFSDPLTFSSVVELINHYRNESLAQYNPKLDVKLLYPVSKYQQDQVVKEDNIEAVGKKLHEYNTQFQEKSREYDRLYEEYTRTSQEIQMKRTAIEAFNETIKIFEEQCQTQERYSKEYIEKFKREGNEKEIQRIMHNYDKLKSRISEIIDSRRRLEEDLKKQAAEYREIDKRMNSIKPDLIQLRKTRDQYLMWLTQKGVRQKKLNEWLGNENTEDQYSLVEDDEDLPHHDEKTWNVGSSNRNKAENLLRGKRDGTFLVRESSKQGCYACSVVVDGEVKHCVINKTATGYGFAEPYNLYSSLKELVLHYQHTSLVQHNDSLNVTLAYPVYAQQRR
Express your answer in nM, writing the number without its unit.

## Input Requested read-out: IC50. Entry: COc1cc(-c2ccc3nc(NC(C)=O)sc3c2)cnc1Br
## Output 8370

## Input Requested read-out: IC50. Entry: CNc1ncc(-c2ccc3nc(NC(C)=O)sc3c2)cc1N
## Output 275

## Input Requested read-out: IC50. Entry: CC(C)Nc1cc(-c2ccc3nc(N)sc3c2)cnc1Cl
## Output 509

## Input Requested read-out: IC50. Entry: CC(=O)Nc1nc2ccc(-c3cncc(S(=O)(=O)c4ccccc4F)n3)cc2s1
## Output 19.1

## Input Requested read-out: IC50. Entry: CNc1nc2ccc(-c3cnc(Cl)c(NS(=O)(=O)c4ccccc4F)c3)cc2s1
## Output 14.6

## Input Requested read-out: IC50. Entry: CC(=O)Nc1nc2ccc(-c3cncc(NS(=O)(=O)c4cccc(C(F)(F)F)c4)c3)cc2s1
## Output 9.4

## Input Requested read-out: IC50. Entry: Cc1nc2ccc(-c3cc(O)c(C(F)(F)F)nc3F)cc2s1
## Output 21800

## Input Requested read-out: IC50. Entry: CC(=O)Nc1nc2ccc(-c3cncc(N(C)S(=O)(=O)c4ccc(Cl)c(Cl)c4)c3)cc2s1
## Output 79.2

## Input Requested read-out: IC50. Entry: COCCOCOc1cc(-c2ccc3nc(NC(C)=O)sc3c2)cnc1Cl
## Output 164

----------
Record form. Attribute: IC50. Fill in for each entry.
target: PI3K β (Homo sapiens); construct: Full length p110 subunits of PI3K α, β and δ, N-terminally labeled with polyHis tag; polyHis (N); assay: In vitro PI3 kinase enzyme assay (beta), ATP loss, bioluminescence; conditions: read-out: PI3Kβ ATP loss IC50
Express your answer in nM, writing the number without its unit.

## Input Give recorded IC50 with PI3K β (Homo sapiens) for the following molecule: CC(=O)Nc1nc2ccc(-c3cncc(NS(=O)(=O)c4ccc(C(C)O)cc4)c3)cc2s1 (centres unmarked) [Example 259]
## Output 32.2

## Input Give recorded IC50 with PI3K β (Homo sapiens) for the following molecule: COc1ccc(S(=O)(=O)Nc2cc(-c3ccc4nc(SC)sc4c3)cnc2Cl)cc1 [Example 327]
## Output 384

## Input Give recorded IC50 with PI3K β (Homo sapiens) for the following molecule: O=C(Nc1nc2ccc(-c3ccnc(OCc4ccccc4)n3)cc2s1)c1ccccc1 [Example 58]
## Output 3930

## Input Give recorded IC50 with PI3K β (Homo sapiens) for the following molecule: COc1ccccc1S(=O)(=O)c1cccc(-c2ccc3nc(NC(C)=O)sc3c2)n1 [Example 70]
## Output 1540

## Input Give recorded IC50 with PI3K β (Homo sapiens) for the following molecule: COc1ccc(S(=O)(=O)N(C)c2nccc(-c3cc(F)c4nc(NC(C)=O)sc4c3)n2)cc1 [Example 143]
## Output 109

## Input Give recorded IC50 with PI3K β (Homo sapiens) for the following molecule: Nc1nc2ccc(-c3cnc(Cl)c(NS(=O)(=O)c4ccc(F)cc4Cl)c3)cc2s1 [Example 309]
## Output 36.8

## Input Give recorded IC50 with PI3K β (Homo sapiens) for the following molecule: CC(=O)Nc1nc2ccc(-c3cnc(Cl)c(O)c3)cc2s1 [Example 301]
## Output 94.1

----------
biological target: PI3K β (Homo sapiens); construct: Full length p110 subunits of PI3K α, β and δ, N-terminally labeled with polyHis tag; polyHis (N); experiment: In vitro PI3 kinase enzyme assay (beta), ATP loss, bioluminescence; settings: read-out: PI3Kβ ATP loss IC50;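 also: purified p110β/p85 heterodimer with PtdIns(4,5)P2 as acceptor, incubated at room temperature, leftover ATP read by luminescence, inhibition scaled to compound-free wells with and without enzyme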
measured.quantity: pIC50
Schema: pIC50 number; meaning minus log10 of the concentration expressed in molar units.

## Input Give recorded pIC50 with PI3K β (Homo sapiens) for the following compound: CC(=O)Nc1nc2ccc(-c3ccnc(Sc4ccccc4)n3)cc2s1
## Output 6.51

## Input Give recorded pIC50 with PI3K β (Homo sapiens) for the following compound: CC(=O)Nc1nc2ccc(-c3cncc(NS(=O)(=O)c4ccc(C)cc4)c3)cc2s1
## Output 7.59

## Input Give recorded pIC50 with PI3K β (Homo sapiens) for the following compound: CC(=O)Nc1nc2ccc(-c3ccnc(N(C)S(=O)(=O)c4ccc(C)cc4)c3)cc2s1
## Output 6.35

## Input Give recorded pIC50 with PI3K β (Homo sapiens) for the following compound: CNc1ncc(-c2ccc3nc(NC(C)=O)sc3c2)cc1N
## Output 6.06

## Input Give recorded pIC50 with PI3K β (Homo sapiens) for the following compound: CC(=O)Nc1nc2ccc(-c3ccnc(N(C)S(=O)(=O)c4ccc(C)cc4)n3)cc2s1
## Output 7.31

## Input Give recorded pIC50 with PI3K β (Homo sapiens) for the following compound: CC(=O)Nc1nc2ccc(-c3cncc(N(C)S(=O)(=O)c4ccc(F)c(F)c4)c3)cc2s1
## Output 5.54

## Input Give recorded pIC50 with PI3K β (Homo sapiens) for the following compound: CC(C)(O)c1ccc(S(=O)(=O)Nc2cc(-c3ccc4nc(N)sc4c3)cnc2Cl)cc1
## Output 7.77

## Input Give recorded pIC50 with PI3K β (Homo sapiens) for the following compound: CNc1nc2ccc(-c3cnc(Cl)c(NS(=O)(=O)c4ccc(F)cc4)c3)cc2s1
## Output 7.52
